# credit: patent US20140120095A1

# target or system: recombinant human DLL4 (C-terminally His-tagged extracellular domain, R&D Systems) (human, UniProt Q9NR61 25-522, biotinylated in the competition ELISA)
# Sequence (Q9NR61 25-522): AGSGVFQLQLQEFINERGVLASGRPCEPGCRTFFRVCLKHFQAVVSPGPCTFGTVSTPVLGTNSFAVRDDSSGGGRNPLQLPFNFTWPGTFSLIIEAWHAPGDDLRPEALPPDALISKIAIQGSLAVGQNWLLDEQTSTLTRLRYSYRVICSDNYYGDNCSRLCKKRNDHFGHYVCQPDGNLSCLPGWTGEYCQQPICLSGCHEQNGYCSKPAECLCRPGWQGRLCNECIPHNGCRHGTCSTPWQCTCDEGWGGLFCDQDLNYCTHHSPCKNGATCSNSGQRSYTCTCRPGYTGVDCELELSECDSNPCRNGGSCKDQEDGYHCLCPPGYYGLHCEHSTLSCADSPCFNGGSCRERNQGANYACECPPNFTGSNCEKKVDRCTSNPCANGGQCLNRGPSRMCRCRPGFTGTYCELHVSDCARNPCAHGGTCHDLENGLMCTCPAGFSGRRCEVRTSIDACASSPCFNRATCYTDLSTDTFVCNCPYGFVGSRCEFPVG
# protocol notes: cell-based or functional assay
endpoint: Inhibition (%), DLL4-mediated HUVEC proliferation assay
Numbers only, in %.

DLLBII036 (VHH, not shown: small tags and cut ends) VHH: EVQLVESGGGLVQPGGSLRLSCAASGFTFGSYDMSWVRRAPGKGPEWVSSISSGGGSTYYADYVKGRFTISRDNAKNTLYLQMNSLRPEDTAVYYCAADRYIWARQGEYWGAYEYDYWGQGTLVTVSS : 100
DLLBII039 (VHH, not shown: small tags and cut ends) VHH: EVQLVESGGGLVQPGGSLRLSCAASGFTIGSYDMSWVRRAPGKGPEWVSSISSGGGSTYYADYVKGRFTISRDNAKNTLYLQMNSLRPEDTAVYYCAADRYIWARQGEYWGAYEYDYWGQGTLVTVSS : 100

(Q) Given the entry DLLBII136C07 (VHH, not shown: small tags and cut ends) VHH: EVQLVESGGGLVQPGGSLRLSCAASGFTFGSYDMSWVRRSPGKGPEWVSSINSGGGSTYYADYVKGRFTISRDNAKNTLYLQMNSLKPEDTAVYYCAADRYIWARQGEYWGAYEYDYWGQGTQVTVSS , report its measured Inhibition (%), DLL4-mediated HUVEC proliferation assay.
(A) 100
